Reported IC50 is given for each of the following molecules.
Target: AR-TIF2 PPI (Homo sapiens)
Construct: AR-LBD residues (662-919) were incorporated into one biosensor; expressed in transfected cells; host or cells: U-2 OS osteosarcoma cells, coinfected with recombinant adenoviruses
Sequence (P10275 662-919): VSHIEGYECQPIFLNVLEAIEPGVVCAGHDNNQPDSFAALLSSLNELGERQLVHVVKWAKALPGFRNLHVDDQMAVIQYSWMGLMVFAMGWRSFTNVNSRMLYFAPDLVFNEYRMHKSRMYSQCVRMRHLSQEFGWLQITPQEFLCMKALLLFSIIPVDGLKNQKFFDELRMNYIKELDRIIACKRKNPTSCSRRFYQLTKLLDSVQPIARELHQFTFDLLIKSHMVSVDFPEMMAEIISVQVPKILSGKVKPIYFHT
Assay: AR-TIF2 PPIB HCS assay: disruption of preformed DHT-induced AR-TIF2 PPI complexes (DHT then compound)
Assay type: cell-based
Conditions: U-2 OS cells, 25 nM DHT; read-out: Disruption of DHT-induced AR-TIF2 PPIs IC50
Procedure: AR-TIF2 Protein-Protein Interaction Biosensor Assay: The AR-TIF2 PPIB HCS assay was performed in U-2 OS osteosarcoma cells as described previously (Fancher et al., Assay Drug Dev Technol. 2016, 14:453-477; Fancher et al., Assay Drug Dev Technol. 2018, 16:297-319; Hua et al., Assay Drug Dev Technol. 2014, 12:395-418; Hua et al., Methods Mol Biol. 2018, 1683:211-227). […]

Query :: Field: IC50 (AR-TIF2 PPI (Homo sapiens)). Entry: CNC(=O)c1ccc(-c2c[nH]c3c(C)cccc23)cc1 [Compound S3-21]
Result :: > 100 µM

Query :: Field: IC50 (AR-TIF2 PPI (Homo sapiens)). Entry: Cc1ccccc1-c1cc(O)c2c(c1)CN(c1cc(N)ncn1)CCO2 [Compound S1-4]
Result :: > 100 µM

Query :: Field: IC50 (AR-TIF2 PPI (Homo sapiens)). Entry: Cc1nsc(NC(=O)N2CCC(CN3CCCC3=O)CC2)n1 [Compound S2-9]
Result :: > 100 µM

Query :: Field: IC50 (AR-TIF2 PPI (Homo sapiens)). Entry: Cc1ccccc1-c1cc(O)c2c(c1)CN(c1nc(C(N)=O)cs1)CCO2 [Compound S1-1]
Result :: 24.8 µM

Query :: Field: IC50 (AR-TIF2 PPI (Homo sapiens)). Entry: Cc1nsc(NC(=O)N2CCC(F)CC2)n1 [Compound S2-10]
Result :: > 100 µM

Query :: Field: IC50 (AR-TIF2 PPI (Homo sapiens)). Entry: Cc1c(-c2ccccc2F)[nH]c2ccc(CNC(=O)CCc3cn[nH]c3)cc12 [Compound S3-11]
Result :: 26.1 µM

Query :: Field: IC50 (AR-TIF2 PPI (Homo sapiens)). Entry: Cc1nsc(NC(=O)N2CCC(Sc3ccccc3C)CC2)n1 [Compound S2-6]
Result :: 5.64 µM

Query :: Field: IC50 (AR-TIF2 PPI (Homo sapiens)). Entry: Cc1nsc(NC(=O)N2CCC(Cn3ccnc3C)CC2)n1 [Compound S2-8]
Result :: > 100 µM

Query :: Field: IC50 (AR-TIF2 PPI (Homo sapiens)). Entry: Cc1nsc(NC(=O)N2CCC(Cn3ccnc3)CC2)n1 [Compound S2-7]
Result :: > 100 µM

Turning now to a further molecule:
Query :: Field: IC50 (AR-TIF2 PPI (Homo sapiens)). Entry: COc1cc(-c2ccc(C)s2)cc2c1OCCN(c1nc(C(N)=O)cs1)C2 [Compound S1-5]
Result :: > 100 µM
